Catalogue of polymerase ribozyme fitness (log ratio) values
B1: TPR 5TU (parent)
chain: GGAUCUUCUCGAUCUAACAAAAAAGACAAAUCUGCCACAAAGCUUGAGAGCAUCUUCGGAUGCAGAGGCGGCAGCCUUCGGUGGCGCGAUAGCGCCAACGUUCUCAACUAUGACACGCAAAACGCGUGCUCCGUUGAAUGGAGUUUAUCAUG

- Variants of: B1
- ASSAY_OVERVIEW: polymerase ribozyme fitness, log enrichment relative to wild type (log ratio); higher = more active; in vitro selection for triplet polymerase activity
Fewer inactive variants are shown than the library holds.
Please respond with just the number, no unit label.

C36U U61G	-2.22
A17C A26C C87U	-1.83
C5G G34A U134A	-3.83
A26C C38U G86U U144G	-3.75
G74C	-3.96
C38A C96U C99U	-0.43

// query polymerase ribozyme fitness (log ratio) value for entry A60G C95U C96A
-1.03

// query polymerase ribozyme fitness (log ratio) value for entry A30U G86A
-3.95

// query polymerase ribozyme fitness (log ratio) value for entry A19C C87U
-0.722

// query polymerase ribozyme fitness (log ratio) value for entry C10U C123U G141C
-4.03

// query polymerase ribozyme fitness (log ratio) value for entry A52U C116A
0.243
